Assay: Lapatinib pharmacokinetics and uptake in rat brain tissue (BT);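 for BT corr (BT homogenate corrected), single rat: brain concentration corrected for residual brain blood by the Fridén method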
Format: in vivo, rats
Particulars: male, Wistar, rat, brain tissue homogenate, corrected for residual blood, po, 100 mg/kg, lapatinib p.o. 100 mg/kg alone, 4 h; read-out: BT corr (BT homogenate corrected), single rat
Parameter Measured: concentration at 4 h (ng/mL)
Please give a number only; it is taken to be in ng/mL.

Query: concentration at 4 h; subject: CS(=O)(=O)CCNCc1ccc(-c2ccc3ncnc(Nc4ccc(OCc5cccc(F)c5)c(Cl)c4)c3c2)o1 [lapatinib]
94.2

###

Assay: Lapatinib pharmacokinetics in rat blood plasma (BP), HPLC-MS/MS, noncompartmental analysis
Type: in vivo, rats
Particulars: male, Wistar, rat, plasma, oral, lapatinib 100 mg/kg + elacridar, 0.5 h; read-out: Clapatinib in BP, S
Parameter Measured: concentration at 0.5 h (ng/mL)
Please give a number only; it is taken to be in ng/mL.

Query: concentration at 0.5 h; subject: CS(=O)(=O)CCNCc1ccc(-c2ccc3ncnc(Nc4ccc(OCc5cccc(F)c5)c(Cl)c4)c3c2)o1
1520

###

Assay: Lapatinib pharmacokinetics and uptake in rat brain tissue (BT)
Assay type: in vivo, rats
Particulars: male, Wistar, rat, brain tissue homogenate, oral, lapatinib 100 mg/kg + elacridar, 8 h; read-out: BT corr (BT homogenate), S
Parameter Measured: concentration at 8 h (µg/mL)
Please give a number only; it is taken to be in µg/mL.

Query: concentration at 8 h; subject: CS(=O)(=O)CCNCc1ccc(-c2ccc3ncnc(Nc4ccc(OCc5cccc(F)c5)c(Cl)c4)c3c2)o1 [lapatinib]
0.085

###

Assay: Lapatinib pharmacokinetics in rat blood plasma (BP), HPLC-MS/MS, noncompartmental analysis
Format: in vivo, rats
Particulars: male, Wistar, rat, plasma, po, 100 mg/kg, lapatinib p.o. 100 mg/kg alone, 1 h; read-out: Clapatinib in BP, single rat
Parameter Measured: concentration at 1 h (ng/mL)
Please give a number only; it is taken to be in ng/mL.

Query: concentration at 1 h; subject: CS(=O)(=O)CCNCc1ccc(-c2ccc3ncnc(Nc4ccc(OCc5cccc(F)c5)c(Cl)c4)c3c2)o1
1830

###

Assay: Lapatinib pharmacokinetics and uptake in rat brain tissue (BT)
Type: in vivo, rats
Particulars: male, Wistar, rat, brain tissue homogenate, oral, lapatinib 100 mg/kg + elacridar, 6 h; read-out: BT corr (BT homogenate), S
Experimental: This study was conducted on rats, which are a promising model to predict P-gp-based drug-drug interactions at the human BBB [15]. The animals were allowed to acclimate for one week before the beginning of the experiments. Adult male Wistar-strain rats (weight 470–525 g) were used in the study. […]
Parameter Measured: concentration at 6 h

Query: concentration at 6 h; subject: CS(=O)(=O)CCNCc1ccc(-c2ccc3ncnc(Nc4ccc(OCc5cccc(F)c5)c(Cl)c4)c3c2)o1
85.8 ng/mL

###

Assay: Lapatinib pharmacokinetics and uptake in rat brain tissue (BT);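 for BT corr (BT homogenate corrected), single rat: brain concentration corrected for residual brain blood by the Fridén method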
Assay type: in vivo, rats
Particulars: male, Wistar, rat, brain tissue homogenate, corrected for residual blood, po, 100 mg/kg, lapatinib p.o. 100 mg/kg alone, 8 h; read-out: BT corr (BT homogenate corrected), single rat
Method: This study was conducted on rats, which are a promising model to predict P-gp-based drug-drug interactions at the human BBB [15]. The animals were allowed to acclimate for one week before the beginning of the experiments. Adult male Wistar-strain rats (weight 470–525 g) were used in the study. […]
Parameter Measured: concentration at 8 h (ng/mL)
Please give a number only; it is taken to be in ng/mL.

Query: concentration at 8 h; subject: CS(=O)(=O)CCNCc1ccc(-c2ccc3ncnc(Nc4ccc(OCc5cccc(F)c5)c(Cl)c4)c3c2)o1
87.5
